Test system: CCRF-CEM leukemia
Assay Method Text: NCI-60 one-dose screen, 48 h
Condition Context: 10 µM unless noted
Description: Growth inhibition of the CCRF-CEM human tumor cell line is measured as a screen for anti-cancer activity. Cells are grown in 96 well plates and exposed to the test compound for 48 hours. Compounds are tested at a single concentration, which is 10^-5 M for most compounds. The reported endpoint is percent growth (GI% or GIPRCNT), where numbers from 0 - 100% represent growth inhibition, and numbers from -100% - 0 represent cell death. For example, a value of 40 represents 60% growth inhibition. […]
The panel holds about 83,000 compounds, 20% with a hit somewhere; the sample as a whole holds those more often. Calls of active or inactive are those of the source. The calls were made as follows: active = growth percent below 10; inactive = the rest.
Outcomes: YES = active, NO = inactive

Molecule: CN(C)CCCNC(=S)Nc1ccc(/C=C/c2ccc(Cl)cc2)cc1
Group: YES
--
Molecule: COc1cc(/C=N/NC(=O)c2ccc(OCc3nc4ccc(Cl)cc4[nH]3)cc2)cc(OC)c1OC
Group: YES
--
Molecule: CN(C)c1nc(NCCNS(=O)(=O)c2ccc(C(=O)/C=C/c3ccc(C(F)(F)F)cc3)cc2)nc(N2CCOCC2)n1
Group: YES
--
Molecule: C#CCN(C)CCCOc1ccc(N(CC)C(=O)c2cc(C(C)C)c(O)cc2O)cc1Cl
Group: YES
--
Molecule: CCCCCCCCc1cccc(CC(=O)Nc2ccc(C)cc2C(=O)O)c1
Group: NO
--
Molecule: Cc1nn(-c2ccccc2)c2nc(C)n(CC(=O)N/N=C/c3cccc([N+](=O)[O-])c3)c(=O)c12
Group: NO
--
Molecule: COc1cc(/C=N/NC(=O)c2ccc(OCc3nc4ccc(C)cc4[nH]3)cc2)cc(OC)c1OC
Group: YES
--
Molecule: COc1cc(NC(=O)CSc2nnc(-c3ccc(-c4nc5ccc(Cl)cc5[nH]4)cc3)o2)cc(OC)c1OC
Group: NO
--
Molecule: CN(C)CCOc1ccc(C(=O)C2[C@H](c3ccc(Cl)cc3)[C@@H](c3ccccc3)NC23C(=O)Nc2ccc(Cl)cc23)cc1 (stereo partly specified)
Group: YES
--
Molecule: CCN(C(=O)CN1C(=O)/C(=C/c2ccco2)SC1=S)C1CCS(=O)(=O)C1 (stereo unspecified)
Group: NO
--
Molecule: CCc1ccccc1-c1nc(CN[C@@H]2C[C@@H]3C[C@H]([C@H]2C)C3(C)C)c(C)o1
Group: YES
--
Molecule: Cc1ccc(Nc2nnc(-c3c[nH]c4ccccc34)o2)c(C)c1
Group: YES
--
Molecule: O=C(N/N=C/c1c[nH]c2ccccc12)Nc1ccc(F)c(Cl)c1
Group: NO
--
Molecule: CCOC(=O)c1ccc(NC(=S)NC(=O)c2ccc(NC(=O)C(C)C)cc2OC)cc1
Group: YES
--
Molecule: Cc1ccc(C(=O)C[n+]2cccc3c4ccccc4ccc32)cc1
Group: NO
--
Molecule: Cn1cc(-c2cc(N)n3nc(-c4c[nH]c5ccc(F)cc45)cc3n2)c2cc(Br)cnc21
Group: YES
--
Molecule: COc1ccc2[nH]c(=O)c(CSc3ccccc3Nc3nccc(-c4ccc(Cl)cc4)n3)cc2c1
Group: NO
--
Molecule: N/C(=N\c1nc2ccc([N+](=O)[O-])cc2s1)NC(=O)Nc1ccccc1Cl
Group: NO
--
Molecule: COc1cc2cc(C(=O)N3C[C@@H](CCl)c4c3cc(OC(=O)N(C)CCSSCCN3CCOCC3)c3ccccc43)[nH]c2c(OC)c1OC
Group: YES
--
Molecule: CC[C@]12C=CCN3CC[C@]4(C(=C(C(=O)OC)C1)Nc1cc(OC)c([C@@H]5[C@H]6O[C@H]6[C@@]6(CC)CC(C(=O)OC)=C7Nc8cc(OC)ccc8[C@@]78CCN5[C@@H]68)cc14)[C@@H]32
Group: NO
--
Molecule: CC1=C(C(=O)Nc2ccccc2)C(c2ccc3ccccc3c2)n2c(nc3ccccc32)N1 (stereo unspecified)
Group: NO
--
Molecule: COc1cc2cc(C(=O)N3C[C@@H](CCl)c4c3cc(OC(=O)N(CCC(=O)N3CCN(C)CC3)C3CCCCC3)c3ccccc43)[nH]c2c(OC)c1OC
Group: YES
--
Molecule: C=CC[n+]1cccc2c3ccccc3ccc21
Group: NO
--
Molecule: CN1CCN(C(=O)CCN(C(=O)Oc2cc3c(c4ccccc24)[C@H](CCl)CN3C(=O)c2cc3cc(OCCCN4CCC4)ccc3[nH]2)[C@H]2CCSSC2)CC1
Group: YES
--
Molecule: COc1cc(C2C(C(=O)OCc3ccccc3)=C(C)Nc3nc4ccccc4n32)cc(OC)c1OC (stereo unspecified)
Group: NO
--
Molecule: Cc1cccc(C)c1Nc1nnc(-c2c[nH]c3ccccc23)o1
Group: NO
--
Molecule: C=CC(=O)N1CCN(c2ccc3nc4c(nc3c2C(F)(F)F)C(=O)c2ncccc2C4=O)CC1
Group: YES
--
Molecule: CCOC(=O)c1ccc(NC(=S)NC(=O)c2cccc(NC(=O)c3ccc(C)cc3)c2)cc1
Group: NO
--
Molecule: Nc1nn2c(-c3cc4cc(Br)ccc4oc3=O)ccnc2c1N=Nc1ccc(S(N)(=O)=O)cc1
Group: NO
--
Molecule: COC(=O)c1cc(C(=O)C(F)(F)F)n2c3ccccc3c3ccccc3c12
Group: NO
--
Molecule: O=C(Cc1c(-c2cccc([N+](=O)[O-])c2)n(-c2ncnc3c2c(-c2ccccc2)c(-c2ccccc2)n3Cc2ccccc2)[nH]c1=O)c1ccc(Cl)c(Cl)c1
Group: NO
--
Molecule: O=C(NN1C(=O)/C(=C/C=C/c2ccc([N+](=O)[O-])o2)SC1=S)c1ccncc1
Group: YES
--
Molecule: Cn1ncc2c(N)nc(Oc3ccccc3-c3ccccc3)nc21
Group: NO
--
Molecule: CC(Nc1ncnc2ccc(-c3ccc4oc(N)nc4c3)cc12)c1ccccc1 (stereo unspecified)
Group: YES
--
Molecule: Cc1ccc2nc(SCc3ccccc3F)n(-c3ccccc3)c(=O)c2c1
Group: NO
--
Molecule: CC(C)(C)C(=O)C1CC(C#N)=C2C=Cc3c(ccc4ccccc34)N21 (stereo unspecified)
Group: NO
